Hey, just so you know, these numbers are from PubChem BioAssay AID504332.

biological target: Histone-lysine N-methyltransferase EHMT2 (Homo sapiens) (UniProt Q96KQ7); test: qHTS Assay for Inhibitors of Histone Lysine Methyltransferase G9a; conditions: G9a H3K9 monomethylation, AlphaScreen, 2 h; series mostly up to 59 µM; further: nearly all actives have a fitted effect of over 75% in size
Sequence (Q96KQ7 913-1193 limits assumed): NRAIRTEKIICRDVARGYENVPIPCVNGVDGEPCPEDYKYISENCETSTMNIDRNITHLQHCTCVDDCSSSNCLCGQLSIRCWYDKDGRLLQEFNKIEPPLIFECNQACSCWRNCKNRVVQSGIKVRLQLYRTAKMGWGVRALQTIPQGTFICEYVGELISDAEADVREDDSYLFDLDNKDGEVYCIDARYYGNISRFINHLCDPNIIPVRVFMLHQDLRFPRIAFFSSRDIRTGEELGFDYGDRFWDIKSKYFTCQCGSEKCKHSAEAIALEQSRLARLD
Screen size: about 350,000 compounds; about 31,000 (8.9%) were called active. About 15% were inconclusive and are not listed. The call rests on the fitted dose curve; in most records, active means well fitted inhibition curve with a large enough effect; inconclusive means small, poorly fitted or top-dose-only effect; inactive means no such curve, though single readings can be large or run the other way. This excerpt belongs to a sample that is enriched for actives.
Assign a class; possible classes are true (active), false (inactive)

These solved cases illustrate the format of a correct answer.
>  <molecule>
Cn1c(=O)n(C)c2cc(S(=O)(=O)Nc3ccc(F)cc3)ccc21

>  <label.class>
false

$$$$
>  <molecule>
CCOC(=O)Nc1sc(C(=O)N(C)C)c(C)c1C(=O)OCC

>  <label.class>
false

$$$$
>  <molecule>
Cc1c(NC(=O)c2cc(=O)c3ccccc3o2)c(=O)n(-c2ccccc2)n1C

>  <label.class>
false

$$$$
>  <molecule>
Nc1ccc(-c2nnc(-c3ccc(-c4ccccc4)cc3)o2)cc1

>  <label.class>
true

$$$$
>  <molecule>
CCCn1c2ccccc2c2cnn(CC(=O)N3CCCC(C(=O)OCC)C3)c(=O)c21 (stereo not given)

>  <label.class>
false

$$$$
>  <molecule>
COc1cc(OC)c(-n2cc(-c3ccc(Cl)cc3)[nH]c2=O)cc1Cl

>  <label.class>
true

$$$$
>  <molecule>
CCOC(=O)c1c(NC(=O)C2CC=CCC2C(=O)O)sc(C)c1CC (stereo not given)

>  <label.class>
false

$$$$
>  <molecule>
COc1ccc(-c2nn3c(-c4ccc(OC)cc4)nnc3c3ccccc23)cc1

>  <label.class>
false

$$$$

What outcome does the record of this test show for CCOC(=O)C1CCCN(S(=O)(=O)c2cc(-c3cc(C)no3)ccc2OC)C1 (stereo not given) ?
false

Here is the next molecule: C=CCN1C(=O)C(Cc2cccc(Cl)c2)S/C1=N/N=C/c1ccco1 (stereo not given)
true

###

biological target: Histone-lysine N-methyltransferase EHMT2 (Homo sapiens) (UniProt Q96KQ7); assay: qHTS Assay for Inhibitors of Histone Lysine Methyltransferase G9a; conditions: G9a H3K9 monomethylation, AlphaScreen, 2 h; series mostly up to 59 µM; further: nearly all actives have a fitted effect of over 75% in size
Hit rate of the full screen: of about 350,000 compounds, about 31,000 (8.9%) were called active. Not shown: some 15% with an inconclusive outcome. Calls follow the shape of the dose curve; as a rule, active = well fitted inhibition curve with a large enough effect; inconclusive = small, poorly fitted or top-dose-only effect; inactive = no such curve, though single readings can be large or run the other way. Only a selection was taken, and actives are over-represented in it overall.
Assign a class; possible classes are active, inactive

What outcome does the record of this test show for CCC(=O)N1c2ccc(S(=O)(=O)NCc3ccco3)cc2CC1C (stereo unspecified) ?
inactive

Here is the next compound: COc1ccccc1CNC(=O)CSc1nc(=O)n(Cc2ccncc2)c2c1CCC2
inactive

Here is the next compound: COc1ccc(N(C(=O)c2cccnc2)S(=O)(=O)c2ccc(OC)c(OC)c2)cc1
inactive

Here is the next compound: Cc1cc(OC(C)C(=O)NC2CC(C)(C)NC(C)(C)C2)c2c(C)cc(=O)oc2c1 (stereo unspecified)
inactive

Here is the next compound: CCC(=O)Nc1c(C(=O)N2CCN(c3ccc(F)cc3)CC2)oc2ccccc12
inactive

Here is the next compound: CCOCC(=O)Nc1ncc(S(=O)(=O)c2ccc([N+](=O)[O-])cc2)s1
active

Here is the next compound: CC[n+]1cc(C)ccc1/C=C/c1ccc(N(C)C)cc1
active

Here is the next compound: Cc1cccc(NC(=O)Cn2c(=O)n(CCC(C)C)c(=O)c3cccnc32)c1
inactive
